Recorded measurements of amyloid nucleation score, one per entry
# assay.procedure: amyloid nucleation score (Sup35N fusion, yeast selection) (log enrichment); library NNK2; higher = more nucleation; inactive = no reads after selection;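 further: zero at mode of non-aggregating sequences after 7 days selection at 30°C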
measured.endpoint: amyloid nucleation score

1. HNVYMVFYFAFFSPFMIRYI
3.44
2. RMDGNLQGHDDCVNV
0.773
3. GGDAQACVGHLSHKLCWLSV
1.65
4. GENTRSINVSSGMQEQSRKT
0.523
5. RFTVFRSLKNYSRMHPLIKG
4.93
6. SRSVLSNSDTPTNNAVNCVA
-0.027
7. KLNLGGCLMSRVYC
0.345
8. TRCGMEAYMSLDMGLYERPM
-0.762
9. CHLIVICIQFDKLNLESAFH
0.547

These measurements were taken from the supplement of paper PMC12042874.
